biological target: human D2R/β-arrestin (Homo sapiens (Human), UniProt P14416); assay: β-Arrestin agonist assay (PathHunter); type: cell-based; settings: CHO-K1 cell line expressing human D2R/β-arrestin
Sequence (P14416 whole entry): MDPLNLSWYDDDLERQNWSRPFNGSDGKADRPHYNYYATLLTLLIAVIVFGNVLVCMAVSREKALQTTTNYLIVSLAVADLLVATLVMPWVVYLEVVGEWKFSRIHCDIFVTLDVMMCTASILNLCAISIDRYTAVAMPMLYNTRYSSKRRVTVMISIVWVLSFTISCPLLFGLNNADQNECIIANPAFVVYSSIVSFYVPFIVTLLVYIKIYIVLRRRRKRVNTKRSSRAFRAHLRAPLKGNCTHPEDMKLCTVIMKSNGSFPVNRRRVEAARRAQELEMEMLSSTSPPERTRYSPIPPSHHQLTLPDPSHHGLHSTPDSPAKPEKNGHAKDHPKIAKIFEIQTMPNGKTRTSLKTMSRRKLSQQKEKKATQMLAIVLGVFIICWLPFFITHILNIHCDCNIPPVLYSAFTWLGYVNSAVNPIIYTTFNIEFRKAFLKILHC
QUANTITY_MEASURED: EC50

What does the data say about its EC50? Entry: O=C(NC(c1ccc(Cl)cc1)c1ccccc1F)C1CCN(CCOc2ccccc2)CC1 (single isomer, unassigned) [Compound 40a] > 30 µM

Entry under review: Fc1ccc(F)c(OCCN2CCC(CNC(c3ccc(Cl)cc3)c3ccccn3)CC2)c1 (single isomer, unassigned) [Compound 89a] . Reported EC50? > 30 µM

Requested field: EC50. Item: O=C(NC(c1ccc(F)cc1)c1ccccn1)C1CCN(Cc2cc3ccccc3o2)CC1 (stereo not drawn) > 30 µM

Endpoint output: EC50 of CC(C)C(NC(=O)C1CCN(CCOc2ccccc2)CC1)c1ccccn1 (stereo not drawn) . Value? > 30 µM

Item Clc1ccc(C(c2ccccn2)N2CCC3(CCN(CCOc4ccccc4)CC3)C2)cc1 (single isomer, unassigned) [Compound 105b] has what recorded EC50? 1 to 10 µM

Suppose we examine the molecule O=C(NC(c1ccc(Cl)cc1)c1ccccn1)C1CCN(CCn2ccccc2=O)CC1 (stereo not drawn) ; what EC50 value has been reported? > 30 µM

Bench note: what EC50 did O=C(NC(c1ccc2c(c1)OCO2)c1ccccn1)C1CCN(CCOc2ccccc2F)CC1 (stereo not drawn) [Compound 95] show? > 30 µM

Requested read-out: EC50. Entry: O=C(NC(c1ccccc1)c1ccc(F)cc1)C1CCN(CCOc2ccccc2)CC1 (single isomer, unassigned) [Compound 45b] > 30 µM

Item under review: COc1cccc(C(NC(=O)C2CCN(CCOc3cc(F)ccc3F)CC2)c2ccccn2)c1 (stereo not drawn) . Reported EC50? > 30 µM

Form field: reported EC50 of O=C1CCc2ccc(OCCCCN3CCCN(c4cccc(Cl)c4Cl)CC3)nc2N1 [UNC9975, reference compound] > 30 µM

Query (molecule): O=C(NC(c1ccc(F)cc1)c1ccccn1)C1CCN(CCOc2ccccc2C(F)(F)F)CC1 (stereo not drawn) [Compound 52] ; field requested: EC50 > 30 µM

Recorded EC50 of COc1cccc(C(NC(=O)C2CCN(CCOc3ccccc3F)CC2)c2ccccn2)c1 (stereo not drawn) [Compound 22] , please. > 30 µM

Please give the measured EC50 for this molecule: CC(=O)N(CC1CCN(CCOc2ccccc2)CC1)C(c1ccc(Cl)cc1)c1ccccn1 (stereo not drawn) > 30 µM

What value of EC50 has been recorded for this entry: CC1(C(=O)NC(c2ccc(F)cc2)c2ccccn2)CCN(CCOc2ccccc2C(F)(F)F)CC1 (single isomer, unassigned) [Compound 70a] > 30 µM

Entry O=C(NC(c1ccc(Cl)cc1)c1ccccn1)C1CCN(CCOc2ccccc2)CC1 (single isomer, unassigned) [Compound 63b] : reported EC50 = ? > 30 µM

====

target: human D2R/β-arrestin (Homo sapiens (Human), UniProt P14416); test: cell-based; settings: β-arrestin Antagonist, CHO-K1 cell line expressing human D2R/β-arrestin; quinpirole used as agonist
pIC50: −log10 of the molar value.
QUANTITY_MEASURED: pIC50

Requested read-out: pIC50. Entry: Fc1ccccc1OCCN1CCC(CNC(c2ccc(Cl)cc2)c2ccccc2F)CC1 (stereo not shown) 6.00 to 7.00

Item Fc1ccccc1C(NCC1CCN(CCOc2ccccc2)CC1)c1ccc(Cl)cc1 (single isomer, unassigned) [Compound 81a] has what recorded pIC50? 6.00 to 7.00

pIC50 for Clc1ccc(C(c2ccccn2)N2CC3CCN(CCOc4ccccc4)CC3C2)cc1 (stereo not shown) ? < 4.52

Please report the recorded pIC50 for O=C(NC(c1ccc(Cl)cc1)c1ccccn1)C1CCN(CCOc2cccc(F)c2)CC1 (stereo not shown) . 6.00 to 7.00

====

tested on: Caco2; assay: Caco2 permeability; assay type: in vitro ADME; design: unit not given beside the values; details: B-A direction
QUANTITY_MEASURED: Caco2 B-A
// response body must contain only the number

# query: Caco2 B-A of entry O=C(NC(c1ccc(F)cc1)c1ccccn1)C1CCN(CCOc2ccccc2C(F)(F)F)CC1 (stereo not shown) 9.0

What value of measured Caco2 B-A is listed for COc1cccc(C(NC(=O)C2CCN(CCOc3ccccc3)CC2)c2ccccn2)c1 (stereo not shown) ? 46.7

Query: Caco2 B-A; subject: O=C(NC(c1ccc(Cl)cc1)c1ccccc1F)C1CCN(CCOc2ccccc2)CC1 (stereo not shown) 1.9

Please give the measured Caco2 B-A for this compound: O=C(NC(c1ccc(F)cc1)c1ccccn1)C1CCN(CCOc2ccccc2)CC1 (stereo not shown) 50.5

====

Please respond with reported Microsomal Stability: % remaining after 60 minutes for every item in the list.
experiment: Microsomal stability, mouse
Entry rule: numbers only, all in %.

Entry under review: O=C(NC(c1ccc(Cl)cc1)c1ccccn1)C1CCN(CCOc2ccc(F)cc2F)CC1 (stereo not drawn) [Compound 115] . Reported Microsomal Stability: % remaining after 60 minutes? 26

So what's the measured Microsomal Stability: % remaining after 60 minutes for this one? O=C(NC(c1cccc(C(F)(F)F)c1)c1ccccn1)C1CCN(CCOc2ccccc2)CC1 (stereo not drawn) [Compound 32] 37

May I ask what Microsomal Stability: % remaining after 60 minutes has been recorded for O=C(NC(c1ccc(Cl)cc1)c1cccnc1)C1CCN(CCOc2ccccc2)CC1 (stereo not drawn) [Compound 111] ? 39

What does the data say about its Microsomal Stability: % remaining after 60 minutes? Entry: O=C(NC(c1ccccc1)c1ccc(F)cc1)C1CCN(CCOc2ccccc2)CC1 (stereo not drawn) [Compound 45] 62

====

biological target: human D2R/β-arrestin (Homo sapiens (Human), UniProt P14416); settings: read-out: β-arrestin Antagonist
Give IC50 for every item shown.

So what does the record say about IC50 for COc1cccc(C(NC(=O)C2CCN(CCOc3ccccc3F)CC2)c2ccccn2)c1 (single isomer, unassigned) [Compound 22b] ? 100 to 1000 nM

Quick check: IC50 of O=C(NC(c1ccccn1)c1ccccc1F)C1CCN(CCOc2ccccc2)CC1 (stereo not shown) [Compound 28] ? 1000 to 10000 nM

Which IC50 is reported for this molecule? O=C(NC(c1ccccc1)c1ccc(F)cc1)C1CCN(CCOc2ccccc2)CC1 (single isomer, unassigned) [Compound 45a] 100 to 1000 nM

IC50 lookup needed for O=C(NC(c1ccc2c(c1)OC(F)(F)O2)c1ccccn1)C1CCN(CCOc2ccccc2)CC1 (single isomer, unassigned) [Compound 119a] , thanks. 1000 to 10000 nM

Looking for the measured IC50 of COc1cccc(C(NC(=O)C2CCN(CCOc3ccccc3)CC2)c2ccccn2)c1 (stereo not shown) [Compound 35a] , can you help? 10000 to 30000 nM

# input molecule: O=C(NC(c1ccc(F)cc1)c1ccccn1)C1CCN(CCOc2ccccc2Cl)CC1 (single isomer, unassigned) [Compound 53b] ; wanted: its IC50 100 to 1000 nM

Can you look up the measured IC50 of O=C(NC(c1ccc(Cl)cc1)c1ccccn1)C1CCN(CCOc2ccc3ccc(=O)[nH]c3c2)CC1 (stereo not shown) [Compound 15] for me? 10000 to 30000 nM

State the recorded IC50 for this entry: CC1(C(=O)NC(c2ccc(F)cc2)c2ccccn2)CCN(CCOc2ccccc2C(F)(F)F)CC1 (single isomer, unassigned) [Compound 70a] < 100 nM

For O=C(NC(c1ccc(F)cc1)c1ccccn1)C1CCN(CCOc2ccccc2F)CC1 (single isomer, unassigned) [Compound 54a] , what is its reported IC50? < 100 nM

Recorded IC50 of O=C(NC(c1ccc(Cl)cc1)c1ccccc1F)C1CCN(CCOc2ccccc2F)CC1 (single isomer, unassigned) [Compound 96b] , please. 100 to 1000 nM

Form field: reported IC50 of O=C(NC(c1ccc(F)cc1)c1ccccn1)C1CCN(CCOc2ccccc2C(F)(F)F)CC1 (single isomer, unassigned) [Compound 52b] 100 to 1000 nM

What does the data say about its IC50? Entry: O=C(NC(c1ccc2c(c1)OCO2)c1ccccn1)C1CCN(CCOc2ccccc2F)CC1 (single isomer, unassigned) [Compound 95a] 100 to 1000 nM

Param item = O=C(NC(c1ccc(Cl)cc1)c1ccccn1)C1CCN(CCOc2ccccc2F)CC1 (single isomer, unassigned) [Compound 3a] ; retrieve measured IC50. 100 to 1000 nM

# get_value(readout='IC50', item= O=C(NC(c1ccc(Cl)cc1)c1ccccn1)C1CCN(CCOc2ccccc2C(F)(F)F)CC1 (single isomer, unassigned) [Compound 6a] ) < 100 nM

Return reported IC50; argument: O=C(NC(c1ccc(Cl)cc1)c1ccccn1)C1CCN(CCOc2ccc3cccnc3c2)CC1 (single isomer, unassigned) [Compound 16b] > 30000 nM

// returns reported IC50 for input O=C(NC(c1ccc(Cl)cc1)c1ccccn1)C1CCN(CCn2ccc(=O)cc2)CC1 (single isomer, unassigned) [Compound 11b] > 30000 nM

Return reported IC50; argument: O=C(NC(c1ccc(Cl)cc1)c1ccccn1)C1CCN(CCn2ccc(=O)cc2)CC1 (single isomer, unassigned) [Compound 11a] 100 to 1000 nM

Query: IC50; subject: O=C(NC(c1ccc(Cl)cc1)c1ccccn1)C1CCN(CCOc2cccc(F)c2)CC1 (single isomer, unassigned) [Compound 4b] 1000 to 10000 nM

Give its IC50 value. Item: O=C(NC(c1ccc(F)cc1)c1ccccn1)C1CCN(CCOc2ccccc2F)CC1 (single isomer, unassigned) [Compound 54b] 1000 to 10000 nM

Form field: reported IC50 of O=C(NC(c1cccc(OC(F)(F)F)c1)c1ccccn1)C1CCN(CCOc2ccccc2)CC1 (single isomer, unassigned) [Compound 118a] 10000 to 30000 nM

Query: IC50; subject: CC(C)N(CC1CCN(CCOc2ccccc2)CC1)C(c1ccc(Cl)cc1)c1ccccn1 (single isomer, unassigned) [Compound 103b] 100 to 1000 nM

What value of IC50 has been reported for the following molecule? O=C(NC(c1ccc(Cl)cc1)c1ccccn1)C1CCN(CCOc2ccccc2F)CC1 (single isomer, unassigned) [Compound 3b] 100 to 1000 nM

What value of IC50 has been recorded for this entry: O=C(NC(c1cccc(OC(F)(F)F)c1)c1ccccn1)C1CCN(CCOc2ccccc2)CC1 (single isomer, unassigned) [Compound 118b] 1000 to 10000 nM

What does the data say about its IC50? Entry: O=C(NC(c1ccc(Cl)cc1)c1ccccn1)C1CCN(CCOc2cccc(F)c2)CC1 (single isomer, unassigned) [Compound 4a] 1000 to 10000 nM

I have this molecule here, O=C(NC(c1ccc(Cl)cc1)c1ccccn1)C1CCN(CCOc2cc(F)ccc2F)CC1 (single isomer, unassigned) [Compound 14b] , and I need its recorded IC50. 100 to 1000 nM

Which IC50 value is on record for O=C(NC(c1ccc(Cl)cc1)c1ccccn1)C1CCN(CCOc2ccc3cccnc3c2)CC1 (single isomer, unassigned) [Compound 16a] ? > 30000 nM

# lookup: IC50 of O=C(NC(c1ccc(F)cc1)c1ccccn1)C1CCN(CCOc2ccccc2Cl)CC1 (single isomer, unassigned) [Compound 53a] 100 to 1000 nM

What value of measured IC50 is listed for O=C(NC(c1ccc2c(c1)OC(F)(F)O2)c1ccccn1)C1CCN(CCOc2ccccc2)CC1 (single isomer, unassigned) [Compound 119b] ? 1000 to 10000 nM
